assay: Volatility determined by TGA (thermal gravimetric analysis); type: physicochemical; settings: Dicamba salts, 480 g/l; TGA; normalized, dicamba acid = 100.0
assayEndpoint: Volatility (normalized)
Form: value (number only, do not type unit).

Query :: I'd like to know its Volatility (normalized). The molecule in question is COc1c(Cl)ccc(Cl)c1C(=O)O [Dicamba acid, dicamba, reference compound]
Result :: 100.0

Query :: I'd like to know its Volatility (normalized). The molecule in question is CN(C)CCCNCCCN(C)C.COc1c(Cl)ccc(Cl)c1C(=O)O [Dicamba salt: Jeffcat ® Z-130]
Result :: 2.9

Query :: I'd like to know its Volatility (normalized). The molecule in question is COc1c(Cl)ccc(Cl)c1C(=O)O.NCCNCCN [Dicamba salt: Diethylenetriamine]
Result :: 0.7

Query :: I'd like to know its Volatility (normalized). The molecule in question is COc1c(Cl)ccc(Cl)c1C(=O)O.NCCN1CCNCC1 [Dicamba salt: Aminoethylpiperazine]
Result :: 0.4

###

Experiment: Volatility determined by TGA (thermal gravimetric analysis)
Assay type: physicochemical
Conditions: Dicamba salts, 480 g/l; TGA; normalized, dicamba acid = 100.0
Procedure: The volatility of the aqueous solutions of dicamba (480 g/l) or 2,4-D (250 g/l) as prepared in Example 1 was determined by analyzing the wt % loss per minute as calculated by the slope between 400 min and 1200 min of a TGA (thermal gravimetric analysis) analysis. […] The volatility of the aqueous solutions of glyphosate salts as prepared in Example 6 was determined by analyzing the wt % loss per minute as described in Example 3.
assayEndpoint: Volatility (normalized)
Form: value (number only, do not type unit).

Query :: I'd like to know its Volatility (normalized). The compound in question is CN(C)CCCN(C)CCCN(C)C.COc1c(Cl)ccc(Cl)c1C(=O)O [Dicamba salt: Jeffcat ZR-40]
Result :: 5.0

Query :: I'd like to know its Volatility (normalized). The compound in question is COc1c(Cl)ccc(Cl)c1C(=O)O.NCCNCCO [Dicamba salt: Aminoethylethanolamine, aminoethylethanolamine salt of dicamba]
Result :: 3.1

Query :: I'd like to know its Volatility (normalized). The compound in question is COc1c(Cl)ccc(Cl)c1C(=O)O.NCCOCCO [Dicamba salt: 2-(-Aminoethoxy)ethanol, dicamba 2-(-Aminoethoxy)ethanol salt, reference compound]
Result :: 5.4
